Below, each of the molecules is paired with its reported pKi value.
biological target: UniProtKB P31645; assay: Inhibition of human SERT expressed in CHO cell membranes assessed as reduction in [3H]serotonin uptake preincubated for 10 mins followed by [3H]serotonin addition measured after 20 mins by liquid scintillation counting method; type: cell-based
Sequence (P31645 whole entry): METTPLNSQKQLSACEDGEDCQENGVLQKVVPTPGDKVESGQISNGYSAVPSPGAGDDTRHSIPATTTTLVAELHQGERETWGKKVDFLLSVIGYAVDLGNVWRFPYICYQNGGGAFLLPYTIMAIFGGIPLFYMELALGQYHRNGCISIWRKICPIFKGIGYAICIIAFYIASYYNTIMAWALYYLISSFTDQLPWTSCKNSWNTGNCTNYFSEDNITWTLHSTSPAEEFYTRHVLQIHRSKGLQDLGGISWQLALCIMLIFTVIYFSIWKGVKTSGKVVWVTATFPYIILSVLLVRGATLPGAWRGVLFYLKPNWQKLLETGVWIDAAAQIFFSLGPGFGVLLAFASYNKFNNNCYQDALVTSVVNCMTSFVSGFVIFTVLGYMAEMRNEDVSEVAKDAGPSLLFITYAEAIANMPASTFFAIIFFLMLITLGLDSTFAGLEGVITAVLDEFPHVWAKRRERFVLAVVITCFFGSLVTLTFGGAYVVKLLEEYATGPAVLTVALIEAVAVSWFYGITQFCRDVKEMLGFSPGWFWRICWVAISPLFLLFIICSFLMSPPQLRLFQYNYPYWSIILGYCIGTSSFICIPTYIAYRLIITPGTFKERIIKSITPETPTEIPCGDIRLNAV
Hey, just a heads up that pKi is the negative log base 10 of the concentration in molar.

Study these solved cases before continuing.
COc1ccc(Br)c(CC2CCN(CCc3cc4c(cc3Cl)OCCO4)CC2)c1: 7.91
COc1ccc(Br)c(CC2CCN(CCc3ccc(C)cc3)CC2)c1: 7.19
COc1ccc(Br)c(CC2CCN(CCc3ccc(F)cc3)CC2)c1: 7.29
COc1ccc(Br)c(CC2CCN(CCc3ccccc3OC)CC2)c1: 7.42
COc1ccc(Br)c(CC2CCN(CCc3ccc4ccccc4c3)CC2)c1: 7.59

I have this molecule here, `COc1ccc(Br)c(CC2CCN(CCc3cccc4c3OCCO4)CC2)c1` , and I need its recorded pKi.
7.59

// lookup pKi for `COc1ccc(Br)c(CC2CCN(CCc3ccccc3Cl)CC2)c1`
7.20

If you can, please state the reported pKi value of `COc1ccc(Br)c(CC2CCN(CCc3ccc(OC)c(Cl)c3)CC2)c1` .
7.72

Using the record for `CC(C)Oc1ccc(Br)c(CC2CCN(CCc3cc4c(cc3Cl)OCCO4)CC2)c1` , report its pKi.
7.86

Quick one: pKi for `COc1ccc(Br)c(CC2CCN(CCc3ccc(OC)c(OC)c3)CC2)c1` ?
7.57

Query (molecule): `COc1ccc(Br)c(CC2CCN(CCc3cccc4ccccc34)CC2)c1` ; field requested: pKi
7.41
